The measurements presented in this section are drawn from patent US10718772B2.

# ASSAY TARGET: HIV-1 protease (Human immunodeficiency virus type 1 group M subtype B, UniProt P04585)
# Construct: made in house
# EXPERIMENT SUMMARY: ssHIV1 probe assay, HIV-1 protease directly adsorbed on solid carrier, qPCR
# Type: binding
# CONDITION SET: second independent experiment, pH 6.0; read-out: Ki (2)
OBSERVED PROPERTY: pKi
Lab note — pKi values are minus log10 of concentrations in M.

Would you please look over these solved cases?
CCC[C@@]1(CCc2ccccc2)CC(O)=C([C@H](CC)c2cccc(NS(=O)(=O)c3ccc(C(F)(F)F)cn3)c2)C(=O)O1
8.54
COC(=O)N[C@H](C(=O)N[C@@H](Cc1ccccc1)[C@@H](O)CN(Cc1ccc(-c2ccccn2)cc1)NC(=O)[C@@H](NC(=O)OC)C(C)(C)C)C(C)(C)C
9.74
Cc1nc(COc2ccc(C[C@H](NC(=O)O[C@H]3CO[C@H]4OCC[C@H]43)[C@H](O)CN(CC(C)C)S(=O)(=O)c3ccc4c(c3)OCO4)cc2)cs1
10.30

Identify measured pKi corresponding to Cc1cccc(C)c1OCC(=O)N[C@@H](Cc1ccccc1)[C@@H](O)C[C@H](Cc1ccccc1)NC(=O)[C@H](C(C)C)N1CCCNC1=O
9.39

* * *

# ASSAY TARGET: Avi-PSMA (Homo sapiens, UniProt Q04609)
# Construct: Biotinylated extracellular portion of PSMA (hereinafter called Avi-PSMA) used in the enzyme assay; made in house
# Sequence (Q04609 44-750 limits assumed): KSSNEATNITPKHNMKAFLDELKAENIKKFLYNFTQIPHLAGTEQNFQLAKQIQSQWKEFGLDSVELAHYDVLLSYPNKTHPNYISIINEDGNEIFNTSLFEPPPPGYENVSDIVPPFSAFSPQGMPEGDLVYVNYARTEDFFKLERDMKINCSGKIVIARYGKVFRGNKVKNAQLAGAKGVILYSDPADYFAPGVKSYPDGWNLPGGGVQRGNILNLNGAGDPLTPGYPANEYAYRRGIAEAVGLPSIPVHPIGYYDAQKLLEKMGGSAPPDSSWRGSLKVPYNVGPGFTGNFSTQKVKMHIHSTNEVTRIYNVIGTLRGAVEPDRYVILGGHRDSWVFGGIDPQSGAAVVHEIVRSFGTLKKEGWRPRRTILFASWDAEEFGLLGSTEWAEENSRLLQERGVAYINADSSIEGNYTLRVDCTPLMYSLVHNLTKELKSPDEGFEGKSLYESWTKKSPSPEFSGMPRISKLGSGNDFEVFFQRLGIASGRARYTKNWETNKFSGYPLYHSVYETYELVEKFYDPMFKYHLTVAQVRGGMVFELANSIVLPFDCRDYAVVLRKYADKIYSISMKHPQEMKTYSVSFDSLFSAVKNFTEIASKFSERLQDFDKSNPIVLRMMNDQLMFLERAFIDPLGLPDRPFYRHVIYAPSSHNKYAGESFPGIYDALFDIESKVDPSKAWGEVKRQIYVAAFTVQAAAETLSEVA
# EXPERIMENT SUMMARY: Enzyme kinetics of Avi-PSMA (HPLC, cleavage of pteroyl-bis-L-glutamate)
# Type: biochemical
# CONDITION SET: Avi-PSMA; IC50 converted by Cheng-Prusoff; pH 7.4, 37° C.
OBSERVED PROPERTY: pKi
A value of pKi is the negative decimal logarithm of a concentration given in moles per litre.

Provide measured pKi value, entry: O=C(O)CCC(NC(=O)NC(CCCCNC(=O)CCOCCC(=O)NCCO)C(=O)O)C(=O)O (stereo not shown)
8.48

* * *

# ASSAY TARGET: Avi-PSMA (Homo sapiens, UniProt Q04609)
# Construct: Biotinylated extracellular portion of PSMA (hereinafter called Avi-PSMA) used in the enzyme assay; made in house
# EXPERIMENT SUMMARY: Enzyme kinetics of Avi-PSMA (HPLC, cleavage of pteroyl-bis-L-glutamate)
# Format: biochemical
# CONDITION SET: Avi-PSMA enzyme assay
OBSERVED PROPERTY: Ki (nM)
Quick note: give the figure in nM, leave out the unit.

Using Avi-PSMA (Homo sapiens, UniProt Q04609) as the test system, report measured Ki of NCCCC[C@H](NC(=O)N[C@@H](CCC(=O)O)C(=O)O)C(=O)O .
0.2

* * *

# ASSAY TARGET: HIV-1 protease (Human immunodeficiency virus type 1 group M subtype B, UniProt P04585)
# Construct: made in house
# EXPERIMENT SUMMARY: ssHIV1 probe assay, HIV-1 protease directly adsorbed on solid carrier, qPCR
# Assay type: binding
# CONDITION SET: first independent experiment, pH 6.0; read-out: Ki (1)
Listed molecules paired with reported pKi
Please note pKi is a logarithmic value: minus log10 of concentration in mol/L. Answer with that number alone.

Example entries and their recorded answers appear below.
CCC[C@@]1(CCc2ccccc2)CC(O)=C([C@H](CC)c2cccc(NS(=O)(=O)c3ccc(C(F)(F)F)cn3)c2)C(=O)O1 [tipranavir]
8.89
Cc1nc(COc2ccc(C[C@H](NC(=O)O[C@H]3CO[C@H]4OCC[C@H]43)[C@H](O)CN(CC(C)C)S(=O)(=O)c3ccc4c(c3)OCO4)cc2)cs1 [brecanavir]
10.40
Cc1cccc(C)c1OCC(=O)N[C@@H](Cc1ccccc1)[C@@H](O)C[C@H](Cc1ccccc1)NC(=O)[C@H](C(C)C)N1CCCNC1=O [lopinavir]
9.74

Look up pKi of COC(=O)N[C@H](C(=O)N[C@@H](Cc1ccccc1)[C@@H](O)CN(Cc1ccc(-c2ccccn2)cc1)NC(=O)[C@@H](NC(=O)OC)C(C)(C)C)C(C)(C)C [atazanavir] and report it.
9.96

* * *

# ASSAY TARGET: HIV-1 protease (Human immunodeficiency virus type 1 group M subtype B, UniProt P04585)
# Construct: made in house
# EXPERIMENT SUMMARY: HIV-1 protease enzyme kinetics with chromogenic peptide substrate
# Assay type: biochemical
Listing of entries alongside the reported Ki.
Hi! Could you send only the number? It should be in nM, unit omitted.

Cc1cccc(C)c1OCC(=O)N[C@@H](Cc1ccccc1)[C@@H](O)C[C@H](Cc1ccccc1)NC(=O)[C@H](C(C)C)N1CCCNC1=O [lopinavir]
0.018

In one line, give reported Ki of the entry COC(=O)N[C@H](C(=O)N[C@@H](Cc1ccccc1)[C@@H](O)CN(Cc1ccc(-c2ccccn2)cc1)NC(=O)[C@@H](NC(=O)OC)C(C)(C)C)C(C)(C)C [atazanavir] .
0.024

# return recorded Ki for input Cc1nc(COc2ccc(C[C@H](NC(=O)O[C@H]3CO[C@H]4OCC[C@H]43)[C@H](O)CN(CC(C)C)S(=O)(=O)c3ccc4c(c3)OCO4)cc2)cs1 [brecanavir]
0.001

Give Ki for CCC[C@@]1(CCc2ccccc2)CC(O)=C([C@H](CC)c2cccc(NS(=O)(=O)c3ccc(C(F)(F)F)cn3)c2)C(=O)O1 [tipranavir]
0.14

Entry CC(C)[C@H](NC(=O)CCOCCOCCOCCOCCOCCC(=O)NCCO)C(=O)N[C@@H](Cc1ccccc1)C[C@H](O)[C@H](Cc1ccccc1)NC(=O)OCc1cncs1 [Compound 8] needs its Ki filled in; supply it.
2.3

* * *

# ASSAY TARGET: HIV-1 protease (Human immunodeficiency virus type 1 group M subtype B, UniProt P04585)
# Construct: made in house
# EXPERIMENT SUMMARY: ssHIV1 probe assay, HIV-1 protease bound to immobilized polyclonal antibody, qPCR
# Assay type: binding
OBSERVED PROPERTY: Ki (nM)
The answer is to be given in nM; state only the numeric part.

Cc1nc(COc2ccc(C[C@H](NC(=O)O[C@H]3CO[C@H]4OCC[C@H]43)[C@H](O)CN(CC(C)C)S(=O)(=O)c3ccc4c(c3)OCO4)cc2)cs1
0.41
COC(=O)N[C@H](C(=O)N[C@@H](Cc1ccccc1)[C@@H](O)CN(Cc1ccc(-c2ccccn2)cc1)NC(=O)[C@@H](NC(=O)OC)C(C)(C)C)C(C)(C)C
1.4
CCC[C@@]1(CCc2ccccc2)CC(O)=C([C@H](CC)c2cccc(NS(=O)(=O)c3ccc(C(F)(F)F)cn3)c2)C(=O)O1
14

Please supply the value of reported Ki for the item Cc1cccc(C)c1OCC(=O)N[C@@H](Cc1ccccc1)[C@@H](O)C[C@H](Cc1ccccc1)NC(=O)[C@H](C(C)C)N1CCCNC1=O
1.3
